Measurement record for BM3 protein (Priestia megaterium); quantity recorded: Kd.

>>> print(df.to_string())
                       compound  value_observed
0  NCCc1ccc(O)c(O)c1 [dopamine]        ~1000 µM

Moving on to another compound below.
Task: Lab note: need Kd for NCCc1c[nH]c2ccc(O)cc12 [serotonin] on BM3 protein (Priestia megaterium), anyone have it?
Result: ~1000 µM
